System: Mus musculus
Assay: Hypothermic activity in iv dosed mouse assessed as change in rectal temperature after 4 mins
Format: functional
outcomeMeasure: ED50 (µmol/kg)
State just the number; it will be interpreted in µmol/kg.

These recorded examples may help you get a feel for the data.
CCCCCCC(C)(C)c1cccc(OCC/C=C\C/C=C\CCCC(=O)N[C@H](C)CO)c1; 7.8
C[C@H](CO)NC(=O)CCC/C=C\C/C=C\CCOc1cccc(C(C)(C)CCCCBr)c1; 2.1
C[C@H](CO)NC(=O)CCC/C=C\C/C=C\CCOc1cccc(C(C)(C)CCCCO)c1; 2.8

Moving on to another compound below.
Prompt: Identify measured ED50 corresponding to `C[C@H](CO)NC(=O)CCC/C=C\C/C=C\CCOc1cccc(C(C)(C)CCCCN=[N+]=[N-])c1`
Response: 1.95

====

Target: Cannabinoid receptor 1 (Homo sapiens, UniProt P21554)
Sequence (P21554 whole entry): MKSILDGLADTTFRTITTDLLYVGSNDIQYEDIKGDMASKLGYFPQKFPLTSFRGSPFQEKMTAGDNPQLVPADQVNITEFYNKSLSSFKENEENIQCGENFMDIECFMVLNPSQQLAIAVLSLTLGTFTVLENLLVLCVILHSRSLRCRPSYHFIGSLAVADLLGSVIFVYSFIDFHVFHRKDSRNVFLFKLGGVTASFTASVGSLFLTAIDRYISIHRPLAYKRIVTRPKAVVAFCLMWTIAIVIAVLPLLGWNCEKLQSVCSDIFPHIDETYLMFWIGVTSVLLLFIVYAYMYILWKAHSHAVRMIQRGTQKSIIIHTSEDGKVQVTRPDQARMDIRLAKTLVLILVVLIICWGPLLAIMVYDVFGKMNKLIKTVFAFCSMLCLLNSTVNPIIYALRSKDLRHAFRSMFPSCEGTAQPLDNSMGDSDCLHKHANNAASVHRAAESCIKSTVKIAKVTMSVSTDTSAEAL
pKi: −log10 of the molar value.
Short version: pKi at least 7 is YES, less is NO.

Some entries whose results are on file:
C[C@H](CO)NC(=O)CCC/C=C\C/C=C\CCOc1cccc(C(C)(C)CCCCN=[N+]=[N-])c1; YES
CCCCCCC(C)(C)c1cccc(OCC/C=C\C/C=C\CCCC(=O)N[C@H](C)CO)c1; YES

Prompt: Entry `C[C@H](CO)NC(=O)CCC/C=C\C/C=C\CCOc1cccc(C(C)(C)CCCCBr)c1` : is its pKi no less than 7?
Response: YES

Prompt: Entry `CCCCCCC(C)(C)c1ccc(OCC/C=C\C/C=C\CCCC(=O)N[C@H](C)CO)cc1` : is its pKi no less than 7?
Response: NO

====

Biological target: Cannabinoid receptor 1 (Homo sapiens)
outcomeMeasure: Ki (nM)
State just the number; it will be interpreted in nM.

Prompt: Identify measured Ki corresponding to `C[C@H](CO)NC(=O)CCC/C=C\C/C=C\CCOc1cccc(C(C)(C)CCCCO)c1`
Response: 79

Prompt: Identify measured Ki corresponding to `CCCCCCC(C)(C)c1ccccc1/C=C\C/C=C\C/C=C\CCCC(=O)N[C@H](C)CO`
Response: 86.3

Prompt: Identify measured Ki corresponding to `CCCCCCC(C)(C)c1cccc(OCC/C=C\C/C=C\C/C=C\CCCC(=O)N[C@H](C)CO)c1`
Response: 131

Hey, just so you know, these numbers are from ChEMBL document CHEMBL1140469.
